Where do the numbers come from? From patent US20110105554A1.

# measurement-target: Dictyostelium myosin-1E (Dictyostelium discoideum)
# Sequence (Q03479 1-698): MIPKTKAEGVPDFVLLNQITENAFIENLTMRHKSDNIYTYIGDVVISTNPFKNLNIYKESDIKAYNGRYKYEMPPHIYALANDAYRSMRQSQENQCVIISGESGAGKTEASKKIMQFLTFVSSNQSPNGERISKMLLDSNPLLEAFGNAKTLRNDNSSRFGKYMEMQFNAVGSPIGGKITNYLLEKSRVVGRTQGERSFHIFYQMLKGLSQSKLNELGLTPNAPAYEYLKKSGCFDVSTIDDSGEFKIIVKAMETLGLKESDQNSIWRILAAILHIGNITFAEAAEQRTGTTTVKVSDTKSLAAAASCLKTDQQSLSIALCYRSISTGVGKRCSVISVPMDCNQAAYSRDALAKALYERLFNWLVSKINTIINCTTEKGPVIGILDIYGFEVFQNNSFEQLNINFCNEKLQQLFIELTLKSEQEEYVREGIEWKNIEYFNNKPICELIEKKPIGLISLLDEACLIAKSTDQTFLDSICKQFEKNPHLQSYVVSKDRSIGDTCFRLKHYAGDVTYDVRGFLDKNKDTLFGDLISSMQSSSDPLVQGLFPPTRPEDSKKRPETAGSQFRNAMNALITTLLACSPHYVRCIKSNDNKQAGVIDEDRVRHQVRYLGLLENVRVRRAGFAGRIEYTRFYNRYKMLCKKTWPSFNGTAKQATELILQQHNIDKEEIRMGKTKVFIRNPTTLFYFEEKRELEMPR
measured-quantity: IC50 (µM)

1) Oc1c(Cl)cc(Cl)cc1-c1[nH]c(Cl)c(Cl)c1Cl [KIN-68, pentachloropseudilin] = 55.8

---

# method-description: in vitro
# test-parameters: human
measured-quantity: CC50 at 4 h

1. Oc1cc(F)c(F)c2c1[nH]c1ccc(F)cc12 [KIN-93] = > 50 µM

---

# measurement-target: DdMyosin-5b (Dictyostelium discoideum, UniProt P54697)
# Construct: comprising amino acids 1-698, 1-765, and 1-839 respectively
# Sequence (P54697 1-839): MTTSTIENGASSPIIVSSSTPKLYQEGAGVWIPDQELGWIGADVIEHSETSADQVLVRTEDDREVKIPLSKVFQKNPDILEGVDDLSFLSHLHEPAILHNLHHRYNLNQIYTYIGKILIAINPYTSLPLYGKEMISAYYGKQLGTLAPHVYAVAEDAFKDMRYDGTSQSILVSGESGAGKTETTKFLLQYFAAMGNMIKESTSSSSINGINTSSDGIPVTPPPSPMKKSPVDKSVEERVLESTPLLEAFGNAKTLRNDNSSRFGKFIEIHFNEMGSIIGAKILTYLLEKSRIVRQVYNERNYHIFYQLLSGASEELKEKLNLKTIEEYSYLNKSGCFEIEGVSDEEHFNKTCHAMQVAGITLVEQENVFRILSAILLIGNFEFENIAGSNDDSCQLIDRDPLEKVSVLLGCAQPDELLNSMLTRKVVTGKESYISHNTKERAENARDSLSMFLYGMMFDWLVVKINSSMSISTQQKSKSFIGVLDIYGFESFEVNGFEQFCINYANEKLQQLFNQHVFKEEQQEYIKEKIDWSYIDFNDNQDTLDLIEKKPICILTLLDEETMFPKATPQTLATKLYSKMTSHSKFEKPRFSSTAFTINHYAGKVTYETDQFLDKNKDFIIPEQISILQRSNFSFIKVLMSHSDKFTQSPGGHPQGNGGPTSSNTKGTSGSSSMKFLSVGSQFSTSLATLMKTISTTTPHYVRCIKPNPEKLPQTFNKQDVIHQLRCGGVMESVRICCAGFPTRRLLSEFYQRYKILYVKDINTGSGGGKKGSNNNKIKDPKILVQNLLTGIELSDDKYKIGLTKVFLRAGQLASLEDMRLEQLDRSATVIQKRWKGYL
# method-description: mantATP binding to DdMyosin-5b (stopped-flow)
measured-quantity: Kd

1) Oc1c(Br)cc(Br)cc1-c1[nH]c(Br)c(Br)c1Br [KIN-43] = 21 µM
